Consider the following IC50 values measured on human p38α (Homo sapiens).
Sequence (Q16539 9-352): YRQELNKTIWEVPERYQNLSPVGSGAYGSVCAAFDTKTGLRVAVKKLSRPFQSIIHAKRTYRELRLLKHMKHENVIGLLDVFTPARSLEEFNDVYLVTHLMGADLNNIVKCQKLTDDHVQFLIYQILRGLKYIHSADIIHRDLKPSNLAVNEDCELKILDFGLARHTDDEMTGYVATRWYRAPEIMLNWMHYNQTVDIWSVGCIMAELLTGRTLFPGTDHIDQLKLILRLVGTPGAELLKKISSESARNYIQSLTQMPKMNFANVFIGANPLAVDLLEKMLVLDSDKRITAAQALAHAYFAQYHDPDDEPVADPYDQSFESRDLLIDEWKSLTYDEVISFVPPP
Recorded Metric: IC50 (µM)

1) c1ccc(-c2[nH]cnc2-c2ccc3c(c2)COC3)nc1 [Example 1]
4
2) Cc1cccc(-c2[nH]cnc2-c2ccc3c(c2)COC3)n1 [Example 4]
5.2
3) Fc1ccc(-c2[nH]cnc2-c2ccc3c(c2)COC3)nc1 [Example 3]
4.4

* * *

target: human recombinant GST-tagged CK1δ (Homo sapiens); construct: GST; assay: Test Example 4: CK1δ inhibition action (ADP-Glo, SignalChem enzyme); conditions: enzyme 2 ng/μL, Casein Dephosphorylated 200 ng/μL, ATP 25 μM, 40 minutes
Sequence (P48730 whole entry): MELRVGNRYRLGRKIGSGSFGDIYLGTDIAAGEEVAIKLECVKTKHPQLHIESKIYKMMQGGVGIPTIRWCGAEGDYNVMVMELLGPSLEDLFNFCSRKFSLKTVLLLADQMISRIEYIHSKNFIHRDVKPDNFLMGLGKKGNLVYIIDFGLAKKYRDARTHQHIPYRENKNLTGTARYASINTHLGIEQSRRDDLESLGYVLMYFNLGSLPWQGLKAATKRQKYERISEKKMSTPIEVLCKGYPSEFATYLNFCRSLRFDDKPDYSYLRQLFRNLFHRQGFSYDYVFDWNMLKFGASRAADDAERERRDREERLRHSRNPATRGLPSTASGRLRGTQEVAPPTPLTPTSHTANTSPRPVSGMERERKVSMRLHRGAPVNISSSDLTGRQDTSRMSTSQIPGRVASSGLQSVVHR
Recorded Metric: pIC50
Note: pIC50 values are expressed as the negative base-10 logarithm of concentration in M.

Dear colleague, please send me the reported pIC50 for c1ccc(-c2[nH]c(C3CC3)nc2-c2ccc3c(c2)COC3)nc1 when you can.
6.70

Attribution: patent US12473274B2
